Source of measurements: patent US10308643B2

Target: HDAC1 enzyme (Homo sapiens)
Construct: transducing full length HDAC1 and HDAC6 genes into Sf-9 insect cells; GST; purchased SignalChem; host or cells: Sf-9 insect cells
Sequence (Q13547 whole entry): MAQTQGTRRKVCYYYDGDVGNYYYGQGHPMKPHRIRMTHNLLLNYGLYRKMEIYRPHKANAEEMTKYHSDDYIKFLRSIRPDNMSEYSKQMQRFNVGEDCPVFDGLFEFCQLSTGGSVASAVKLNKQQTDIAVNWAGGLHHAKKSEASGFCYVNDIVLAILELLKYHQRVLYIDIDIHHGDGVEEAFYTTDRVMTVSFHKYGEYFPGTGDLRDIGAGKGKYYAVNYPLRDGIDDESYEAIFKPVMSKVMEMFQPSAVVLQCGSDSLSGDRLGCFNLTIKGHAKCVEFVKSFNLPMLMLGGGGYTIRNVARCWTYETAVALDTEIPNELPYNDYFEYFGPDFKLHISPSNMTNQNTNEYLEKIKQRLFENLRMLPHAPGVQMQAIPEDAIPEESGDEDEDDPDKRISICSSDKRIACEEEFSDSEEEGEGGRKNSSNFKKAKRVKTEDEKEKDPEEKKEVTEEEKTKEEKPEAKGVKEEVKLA
Experiment: HDAC1/6 Enzyme Inhibitory Assay (HDAC-Glo I/II Assay kit), HDAC1
Assay type: biochemical
Settings: 1 μM test compound; wells without enzyme = 100% inhibition; read-out: HDAC1 inhibitory rate (%) (1 μM)
value-kind: inhibition at 1 µM

Recorded results for 5 molecules are shown here.
C[C@H](c1ccccc1)N1CC[C@H]2CC[C@H](N3Cc4ccc(-c5noc(C(F)(F)F)n5)cc4C3=O)[C@H]21
15%
O=C1CCC(C(=O)N[C@@H]2CCCC[C@H]2N2Cc3ccc(-c4noc(C(F)(F)F)n4)cc3C2=O)=NN1
5%
O=C1C[C@H](C(=O)N[C@@H]2CCCC[C@H]2N2Cc3ccc(-c4noc(C(F)(F)F)n4)cc3C2=O)CN1
0%
CC1(C(=O)N[C@@H]2CCCC[C@H]2N2Cc3ccc(-c4noc(C(F)(F)F)n4)cc3C2=O)CC1
12%
CC(=O)N1CCC(N2Cc3ncc(-c4noc(C(F)(F)F)n4)cc3C2=O)C1 (stereo not shown)
15%

# input Dear colleague, please send me the reported inhibition at 1 µM for O=C(N[C@@H]1CCCC[C@H]1N1Cc2ccc(-c3noc(C(F)(F)F)n3)cc2C1=O)c1ccccc1 (relative stereo) when you can.
# output 54%

# input Dear colleague, please send me the reported inhibition at 1 µM for O=C(N[C@@H]1CCCC[C@H]1N1Cc2ccc(-c3noc(C(F)(F)F)n3)cc2C1=O)C1CCOC1 (stereo partly shown) when you can.
# output 4%
